# Assayed Target: UniProtKB Q15382
# Assay Overview: Rheb-dependent in vitro kinase assay (Rheb-IVK; LanthaScreen or Western readout)
# Type: biochemical
# Condition: Rheb-dependent in vitro kinase assay; read-out: IVK IC50
Exercise: for every item that follows, state its recorded IC50.

Per the record, Clc1cc2cc[nH]c2cc1Oc1ccccc1 [I-258] has IC50 of > 100 µM

Per the record, [O-][S+](c1ccccc1Cl)c1cccc2[nH]ccc12 (stereo not shown) [I-231] has IC50 of > 100 µM

Per the record, CN1CCN(c2cccc(NC(=O)c3cc4c(-c5cc(Cl)cc(Cl)c5)cc(Cl)cc4[nH]3)c2)CC1 [I-30] has IC50 of < 10 µM

Per the record, COc1ccc(Sc2cc(Cl)cc3[nH]c(CO)cc23)cc1OC [I-135] has IC50 of > 100 µM

Per the record, CN(C)C(=O)c1ccc(Cn2c(C(=O)O)cc3c(SCCc4ccc(Cl)c(Cl)c4)cc(SCCc4ccc(Cl)c(Cl)c4)cc32)cc1 [I-16] has IC50 of < 10 µM

Per the record, CN1CCC[C@H]1CNC(=O)c1cc2c(Br)cc(Sc3ccc(Cl)c(Cl)c3)cc2[nH]1 [I-89] has IC50 of > 100 µM

Per the record, CN1CCC(CCNC(=O)c2cc3c(Br)cc(Sc4ccc(Cl)c(Cl)c4)cc3n2Cc2ccc(C(=O)OC(C)(C)C)cc2)CC1 [I-110] has IC50 of > 100 µM

Per the record, CN(C)C(=O)c1ccc(Cn2c(CN)cc3c(Br)cc(Sc4ccc(Cl)c(Cl)c4)cc32)cc1 [I-37] has IC50 of > 100 µM

Per the record, O=C(O)c1cc2c(Sc3ccc(Cl)cc3)cc(Cl)c(Cl)c2[nH]1 [I-73] has IC50 of < 10 µM

Per the record, O=C(O)c1ccc(CCn2c(-c3ccnc4[nH]ccc34)nc3cc(Cl)c(Cl)cc32)cc1 [I-331] has IC50 of 10 to 100 µM

Per the record, OCc1nc2c(Oc3ccccc3)c(Cl)ccc2[nH]1 [I-418] has IC50 of 100 to 300 µM

Per the record, Clc1ccc(Sc2cccc3[nH]ccc23)c(Cl)c1 [I-212] has IC50 of > 3 µM

Per the record, Cc1cc(Sc2ccc(Cl)cc2)c2cc(C(=O)O)[nH]c2c1Br [I-64] has IC50 of 10 to 100 µM

Per the record, CC(C)(C)OC(=O)c1ccc(Cn2c(-c3ccncc3)nc3cc(Cl)c(Cl)cc32)cc1 [I-374] has IC50 of > 100 µM

Per the record, OCCCc1cc2c(Oc3ccccc3)c(Cl)ccc2[nH]1 [I-248] has IC50 of 10 to 100 µM

Per the record, NCCn1c(CO)cc2c(Oc3ccccc3)cc(Cl)cc21 [I-168] has IC50 of > 100 µM

Per the record, OCc1nc2c(OC[C@H]3CCCC[C@@H]3O)c(Cl)c(Cl)cc2[nH]1 [I-439] has IC50 of 10 to 100 µM

Per the record, OCc1nc2c(Oc3ccccc3)cc(Cl)cc2[nH]1 [I-404] has IC50 of > 100 µM

Per the record, Clc1ccc2c(c1)nc(-c1ncco1)n2Cc1ccc(-c2nn[nH]n2)cc1 [I-410] has IC50 of > 100 µM

Per the record, O=C(O)c1cc2c(Oc3ccccc3)cc(Cl)cc2[nH]1 [I-175] has IC50 of 100 to 300 µM

Per the record, Cc1cc(Sc2ccc(Cl)cc2)c2cc(C(=O)O)[nH]c2c1C [I-58] has IC50 of 10 to 100 µM

Per the record, COC(=O)c1cc2c(Sc3ccc(Br)cc3)cc(Cl)cc2[nH]1 [I-99] has IC50 of > 100 µM

Per the record, CN1CCN(c2cccc(NC(=O)c3cc4c(Sc5ccc(Cl)cc5Cl)cc(Cl)c(Cl)c4[nH]3)c2)CC1 [I-33] has IC50 of < 10 µM

Per the record, CN(C)C(=O)c1ccc(Cn2c(C(=O)O)cc3c(Br)cc(Sc4ccc(Oc5ccccc5)cc4)cc32)cc1 [I-15] has IC50 of < 10 µM

Per the record, CCn1c(CO)nc2cc(OCc3ccccc3Cl)c(Cl)cc21 [I-432] has IC50 of > 100 µM

Per the record, O=C(O)c1cc2c(Cl)cc(Sc3ccc(Cl)c(Cl)c3)cc2[nH]1 [I-100] has IC50 of < 10 µM

Per the record, O=C(O)c1ccc(Cn2c(C(=O)O)cc3c(Br)cc(Sc4ccc(Cl)c(Cl)c4)cc32)cc1 [I-42] has IC50 of < 10 µM

Per the record, CN1CCCN(c2ccc(NC(=O)c3cc4c(Sc5ccc(Cl)cc5Cl)cc(Cl)cc4[nH]3)cc2F)CC1 [I-93] has IC50 of < 10 µM

Per the record, Clc1ccccc1Oc1cccc2[nH]ccc12 [I-285] has IC50 of > 100 µM

Per the record, CN(C)C(=O)c1ccc(Cn2c(C(=O)O)cc3cc(-c4ccccc4)c(Sc4ccc(Cl)c(Cl)c4)cc32)cc1 [I-2] has IC50 of < 10 µM

Per the record, O=C(O)c1cc2c(-c3cc(Cl)cc(Cl)c3)cc(Cl)cc2[nH]1 [I-49] has IC50 of < 10 µM

Per the record, CCn1c(CO)nc2cc(OCc3ccccc3)c(Cl)cc21 [I-487] has IC50 of > 100 µM

Per the record, O=C(O)Cn1ccc2c(Oc3cc(Cl)ccc3Cl)cc(Cl)cc21 [I-158] has IC50 of 10 to 100 µM

Per the record, CN(C)C(=O)c1ccc(Cn2c(C(=O)O)cc3c(Br)cc(Sc4ccc(C(F)(F)F)cc4)cc32)cc1 [I-22] has IC50 of > 100 µM

Per the record, CN1CCN(C(=O)Cc2nc3cc(Cl)c(OCc4ccc(Cl)cc4)cc3[nH]2)CC1 [I-332] has IC50 of 10 to 100 µM

Per the record, O=C(Nc1ncc[nH]1)c1cc2c(Sc3ccc(Cl)cc3)cc(Cl)cc2[nH]1 [I-63] has IC50 of > 100 µM

Per the record, CN1CCC(CCNC(=O)c2cc3c(-c4cc(Cl)cc(Cl)c4)cc(Cl)cc3[nH]2)CC1 [I-31] has IC50 of > 100 µM

* * *

# Assayed Target: HA-GST-Rheb (GTP-γ-S loaded) activating mTORC1 (Homo sapiens (Human), UniProt Q15382)
# Sequence (Q15382 1-181): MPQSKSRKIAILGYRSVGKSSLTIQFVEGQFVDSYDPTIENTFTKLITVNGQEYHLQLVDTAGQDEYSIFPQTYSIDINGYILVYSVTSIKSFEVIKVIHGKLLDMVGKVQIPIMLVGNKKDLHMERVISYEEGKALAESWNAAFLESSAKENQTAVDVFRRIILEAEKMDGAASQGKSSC
# Assay Overview: Rheb-dependent in vitro kinase assay (Rheb-IVK; LanthaScreen or Western readout)
# Format: biochemical
# Condition: Rheb-dependent in vitro kinase assay; read-out: IVK IC50
Metric: IC50

Per the record, `O=C(O)c1cc2c(Sc3ccc(OC(F)(F)F)cc3)cc(Cl)cc2[nH]1` has IC50 of 10 to 100 µM

Per the record, `OCc1cc2c(Br)cc(Sc3ccc(Cl)c(Cl)c3)cc2[nH]1` has IC50 of < 10 µM

Per the record, `CN1CCC(CCNC(=O)c2ccc(-c3nc4cc(Cl)c(Cl)cc4[nH]3)cc2)CC1` has IC50 of > 100 µM

Per the record, `CN1CCN(C(=O)c2ccc(-c3nc4cc(Cl)c(Cl)cc4[nH]3)cc2)CC1` has IC50 of > 100 µM

Per the record, `Nc1nonc1-c1nc2cc(Cl)c(Cl)cc2[nH]1` has IC50 of > 100 µM

* * *

# Assayed Target: HA-GST-Rheb (GTP-γ-S loaded) activating mTORC1 (Homo sapiens (Human), UniProt Q15382)
# Assay Overview: Rheb-dependent in vitro kinase assay (Rheb-IVK; LanthaScreen or Western readout)
# Type: biochemical
# Condition: Rheb-dependent in vitro kinase assay; read-out: IVK IC50
Metric: IC50

Per the record, `OCc1cc2c(Oc3ccc(F)cc3)cccc2[nH]1` has IC50 of 300 to 800 µM

Per the record, `CC(C)(O)CNC(=O)c1ccc(Cn2c(C(=O)O)cc3c(Br)cc(Oc4ccccc4)cc32)cc1` has IC50 of 10 to 100 µM

Per the record, `OCc1nc2c(Br)cc(Oc3ccccc3)cc2n1Cc1nc[nH]n1` has IC50 of > 100 µM

Per the record, `OCc1cc2c(Sc3ccc(Oc4ccccc4)cc3)cc(Cl)cc2[nH]1` has IC50 of < 10 µM

Per the record, `N#Cc1cccc(Cn2c(-c3ncco3)nc3cc(Cl)c(Cl)cc32)c1` has IC50 of > 100 µM

Per the record, `Clc1ccc(Oc2cc(Cl)cc3[nH]ccc23)cc1` has IC50 of 10 to 100 µM

Per the record, `O=C(O)c1cc2c(Sc3ccc(Cl)cc3Cl)cc(Cl)c(Cl)c2[nH]1` has IC50 of < 10 µM

Per the record, OCc1cc2c(C3CCCNC3)cc(Oc3ccccc3)cc2[nH]1 (stereo not drawn) has IC50 of > 100 µM

Per the record, `Clc1ccc(Sc2cc(Cl)cc3[nH]ccc23)cc1` has IC50 of 10 to 100 µM
